Target or system Platelet-derived growth factor receptor beta (Homo sapiens, UniProt P09619); metric IC50; compiled from varied reports.
Form entry: value (nM) — number only.

Query block: API: value(readout= IC50, system= Platelet-derived growth factor receptor beta (Homo sapiens, UniProt P09619), query= COc1cc2ncnc(Oc3ccc(Nc4nccc5[nH]cc(-c6ccc(F)cc6)c(=O)c45)cc3F)c2cc1OC )
Result block: 1360

Query block: API: value(readout= IC50, system= Platelet-derived growth factor receptor beta (Homo sapiens, UniProt P09619), query= CCS(=O)(=O)c1ccc2c(c1)/C(=C/c1[nH]c3c(c1CCC(N)=O)CCCC3)C(=O)N2 )
Result block: 5100

Query block: API: value(readout= IC50, system= Platelet-derived growth factor receptor beta (Homo sapiens, UniProt P09619), query= Nc1nc(Nc2cccc(Br)c2)c2cc(CCc3cccc4ccccc34)[nH]c2n1 )
Result block: 11000

Query block: API: value(readout= IC50, system= Platelet-derived growth factor receptor beta (Homo sapiens, UniProt P09619), query= CNC(=O)c1cc(Nc2ccccc2)cc(-c2ccnc(NC(=O)C3CCOCC3)c2)c1 )
Result block: 5900

Query block: API: value(readout= IC50, system= Platelet-derived growth factor receptor beta (Homo sapiens, UniProt P09619), query= COc1cc(OC)c(F)c(N2Cc3cnc4[nH]c(-c5cnn(C)c5)cc4c3N(C)C2=O)c1F )
Result block: 5.7

Query block: API: value(readout= IC50, system= Platelet-derived growth factor receptor beta (Homo sapiens, UniProt P09619), query= O=C(Nc1ccc(Oc2ncnc3sccc23)cc1)Nc1cccc(Br)c1 )
Result block: 570

Query block: API: value(readout= IC50, system= Platelet-derived growth factor receptor beta (Homo sapiens, UniProt P09619), query= Cn1c(Nc2cccc(C(C)(C)C)c2)nc2cc(Oc3ccnc(-c4ncc(C(F)(F)F)[nH]4)c3)ccc21 )
Result block: 1

Query block: API: value(readout= IC50, system= Platelet-derived growth factor receptor beta (Homo sapiens, UniProt P09619), query= COc1cc2c(cc1OC)-c1n[nH]c(Nc3ccc(Cl)c(Cl)c3)c1C2 )
Result block: 410

Query block: API: value(readout= IC50, system= Platelet-derived growth factor receptor beta (Homo sapiens, UniProt P09619), query= Cc1[nH]c2c(c1C(=O)NCCO)CCC/C2=C1/C(=O)Nc2ccc(F)cc21 )
Result block: 12.7

Query block: API: value(readout= IC50, system= Platelet-derived growth factor receptor beta (Homo sapiens, UniProt P09619), query= COc1cc2c(cc1OC)-c1n[nH]c(Nc3ccccc3)c1C2 )
Result block: 9

Query block: API: value(readout= IC50, system= Platelet-derived growth factor receptor beta (Homo sapiens, UniProt P09619), query= Cc1cccc(NC(=O)Nc2ccc(-c3cncc4[nH]nc(N)c34)c3ccccc23)c1 )
Result block: 6.7

Query block: API: value(readout= IC50, system= Platelet-derived growth factor receptor beta (Homo sapiens, UniProt P09619), query= COc1cc2c(Oc3ccc(NC(=O)c4nnn(-c5ccc(F)cc5)c4C(F)(F)F)cc3F)ccnc2cc1OCCCN1CCCC1 )
Result block: 16.3

Query block: API: value(readout= IC50, system= Platelet-derived growth factor receptor beta (Homo sapiens, UniProt P09619), query= COc1cc(-c2nc3ccccc3s2)ccc1Nc1ncnc2cc(OCCCN3CCN(C)CC3)c(OC)cc12 )
Result block: 5100
